conditions: the molecule shown is the open-chain precursor; crosslinker bond; 31-membered ring; TBMB/NH4HCO3; aq NH4HCO3 (pH 8)/MeCN; 1.67 mM
Record form. Attribute: ring closure, yield after HPLC. Fill in for each entry.
One number for each entry, in %.

Some substances with known ring closure, yield after HPLC results, for comparison:
H-Ala-Cys-Ser-Asp-Arg-Phe-Arg-Asn-Cys-Pro-Ala-Asp-Glu-Ala-Leu-dCys-Gly-NH2?: 10
H-Ala-dCys-Ser-Asp-Arg-Phe-Arg-Asn-dCys-Pro-Ala-Asp-Glu-Ala-Leu-Cys-Gly-NH2?: 26
H-Ala-Cys-Ser-Asp-Arg-Phe-Arg-Asn-dCys-Pro-Ala-Asp-Glu-Ala-Leu-Cys-Gly-NH2?: 16
H-Ala-Cys-Ser-Asp-Arg-Phe-Arg-Asn-dCys-Pro-Ala-Asp-Glu-Ala-Leu-dCys-Gly-NH2?: 24
H-Ala-dCys-Ser-Asp-Arg-Phe-Arg-Asn-dCys-Pro-Ala-Asp-Glu-Ala-Leu-dCys-Gly-NH2?: 26
H-Ala-dCys-Ser-Asp-Arg-Phe-Arg-Asn-Cys-Pro-Ala-Asp-Glu-Ala-Leu-Cys-Gly-NH2?: 26

For each entry beneath this line, provide reported ring closure, yield after HPLC.
1. H-Ala-dCys-Ser-Asp-Arg-Phe-Arg-Asn-Cys-Pro-Ala-Asp-Glu-Ala-Leu-dCys-Gly-NH2?
2. H-Ala-Cys-Ser-Asp-Arg-Phe-Arg-Asn-Cys-Pro-Ala-Asp-Glu-Ala-Leu-Cys-Gly-NH2?

[out]
1. 16
2. 29
